Target: Acetylcholinesterase (Electrophorus electricus)
Details: at 2 mg/mL
Description: Inhibition of electric eel AChE at 2 mg/ml by Ellman's method
READOUT KIND: inhibition (%)
Lab book: enter the figure in %, no units written.

Requested field: inhibition. Item: OC[C@H]1O[C@@H](O[C@@H]2OC=C[C@H]3[C@H](O)[C@@H]4O[C@]4(CO)[C@@H]23)[C@H](O)[C@@H](O)[C@@H]1O
11.3

Any idea what inhibition was measured for COc1ccc2c(c1OC)C(=O)O[C@H]2[C@@H]1c2cc3c(cc2CCN1C)OCO3 ?
9.75

Record request: inhibition value, item COc1cc2c3cc1Oc1c(OC)c(OC)cc4c1[C@@H](Cc1ccc(O)c(c1)Oc1ccc(cc1)C[C@@H]3N(C)CC2)N(C)CC4
11.4

What does the data say about its inhibition? Entry: Cc1nccc2c1[nH]c1cc(O)ccc12
46.1

Requested read-out: inhibition. Entry: O=c1c(-c2ccc(O)cc2)coc2cc(O)ccc12
-3.93

Fill in the blank: the reported inhibition of CO[C@H]1/C=C/O[C@@]2(C)Oc3c(C)c(O)c4c(O)c(c(/C=N/N5CCN(C)CC5)c(O)c4c3C2=O)NC(=O)/C(C)=C\C=C\[C@H](C)[C@H](O)[C@@H](C)[C@@H](O)[C@@H](C)[C@H](OC(C)=O)[C@@H]1C is ____.
16.2

Sourced from ChEMBL document CHEMBL2163249
